Value source: ChEMBL document CHEMBL4765234

# target-desc: Free fatty acid receptor 1 (Homo sapiens)
# Sequence (O14842 whole entry): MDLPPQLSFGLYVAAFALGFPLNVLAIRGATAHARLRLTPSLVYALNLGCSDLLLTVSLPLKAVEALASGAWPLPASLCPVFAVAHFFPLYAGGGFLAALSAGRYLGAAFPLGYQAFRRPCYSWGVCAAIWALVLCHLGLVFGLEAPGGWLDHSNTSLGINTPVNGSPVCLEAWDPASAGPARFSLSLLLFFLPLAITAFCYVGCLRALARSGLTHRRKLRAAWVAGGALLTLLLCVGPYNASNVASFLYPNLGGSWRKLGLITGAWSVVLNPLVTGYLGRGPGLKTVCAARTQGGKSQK
# assay-summary: Agonist activity at human recombinant full length GPR40 overexpressed in human HEK293 cells assessed as increase in intracellular calcium level measured over 3 mins by calcium 4 dye based FLIPR assay
# Assay type: functional, cell-based
Measured EC50 accompanies every entry in the list below.
Reply numerically in nM, unit not repeated.

| smiles-representation | EC50 [nM] |
| --- | --- |
| CC#C[C@@H](CC(=O)O)c1ccc(OCc2ccc(CN3CCC4(CC3)CN(C)c3ccc(C(F)(F)F)cc34)cc2)cc1 | 14 |

Exercise: // returns reported EC50 for input "CC#C[C@@H](CC(=O)O)c1ccc(OCc2ccc(CN3CCC4(C=Cc5ccccc54)CC3)cc2)cc1F"
Solution: 18

Exercise: Continue with "CC#C[C@@H](CC(=O)O)c1ccc(OCc2nc(C)c(CN3CCC4(C=Cc5ccccc54)CC3)s2)cc1"
Solution: 11

Exercise: Continue with "CC#C[C@@H](CC(=O)O)c1ccc(OCc2ccc(CN3CCC4(C=Cc5ccccc54)CC3)c(C(F)(F)F)c2)cc1"
Solution: 20

Exercise: Continue with "O=C(O)CCc1ccc(OCc2ccc(CN3CCC4(C=Cc5ccccc54)CC3)cc2)cc1Cl"
Solution: 140

Exercise: Continue with "CC#C[C@H](CC(=O)O)c1ccc(OCc2ccc(CN3CCC4(C=Cc5ccccc54)CC3)cc2)cc1F"
Solution: 440

Exercise: Continue with "CC#C[C@@H](CC(=O)O)c1ccc(OCc2ccc(CN3CCC4(CC3)CC(=O)c3ccccc3O4)cc2)cc1"
Solution: 65

Exercise: Continue with "CC#C[C@@H](CC(=O)O)c1ccc(OCc2ccc(CN3CCC4(C=Cc5ccccc54)CC3)c(OC)c2)cc1"
Solution: 17

====

Measured EC50 accompanies every entry in the list below.
# target-desc: Free fatty acid receptor 1 (Mus musculus)
# Sequence (Q76JU9 whole entry, the tested form may be a part): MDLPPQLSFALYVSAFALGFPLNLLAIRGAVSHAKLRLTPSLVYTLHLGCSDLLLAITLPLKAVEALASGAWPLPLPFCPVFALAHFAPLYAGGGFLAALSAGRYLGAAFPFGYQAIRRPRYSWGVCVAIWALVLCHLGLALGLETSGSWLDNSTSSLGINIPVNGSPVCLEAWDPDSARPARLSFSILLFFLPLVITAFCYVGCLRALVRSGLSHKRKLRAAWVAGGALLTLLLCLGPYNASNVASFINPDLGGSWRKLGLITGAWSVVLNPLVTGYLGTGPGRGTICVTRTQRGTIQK
# assay-summary: Agonist activity at Prolink-tagged mouse GPR40 fused with EA-tagged beta-arrestin expressed in human U2OS cells assessed as induction of beta-arrestin recruitment measured after 90 mins by beta-galactosidase based PathHunter assay
# Format: cell-based
Write the numeric value and follow it with the unit.

# example entries with known answers
| smiles-representation | EC50 |
| --- | --- |
| CC#C[C@@H](CC(=O)O)c1ccc(OCc2ccc(CN3CCC4(C=Cc5ccccc54)CC3)s2)cc1 | 0.46 nM |
| CC#C[C@@H](CC(=O)O)c1ccc(OCc2ccc(CN3CCC4(CCc5ccccc54)CC3)cc2)cc1 | 0.88 nM |
| CC#C[C@@H](CC(=O)O)c1ccc(OCc2ccc(CN3CCC4(C=Cc5ccccc54)CC3)o2)cc1 | 2.1 nM |

Exercise: // returns reported EC50 for input "CC#C[C@@H](CC(=O)O)c1ccc(OCc2ccc(CN3CCC4(CC3)CN(C)c3ccccc34)cc2)cc1"
Solution: 3.3 nM

Exercise: Continue with "CC#C[C@@H](CC(=O)O)c1ccc(OCc2ccc(CN3CCC4(CC3)CC(=O)c3ccccc3O4)cc2)cc1"
Solution: 2.1 nM

====

# assay-summary: Clearance in mouse plasma at 10 mg/kg, po or 1 mg/kg, iv by LC/MS/MS analysis
# Type: ADME, organism-based
measure-name: clearance
Write the numeric value and follow it with the unit.

Exercise: // returns reported clearance for input "CC#C[C@@H](CC(=O)O)c1ccc(OCc2ccc(CN3CCC4(C=Cc5ccccc54)CC3)cc2)cc1"
Solution: 20.4 mL/min/kg
